- System: S. cerevisiae Burl-1 ts mutant growth, BacTiter-Glo, 38.5C 24 h
- assay_method_text: restored growth of temperature-sensitive Burl-1 yeast – whole organism, S. cerevisiae, Burl-1 ts mutant, luminescence, counter-screen for SUMOylation pathway inhibitor project, dose response (AID 463199)
Activity calls are given as the source filed them.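 Rule for the calls: active = AC50, the dose giving half-maximal effect, exceeds a fixed cutoff for a compound that rescues yeast growth under heat; inactive = the rest, inconclusive results apart.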 Where a SMILES comes first, the peptide text is derived from it.
# valid calls are T (active), F (inactive); nothing else

Known results for compounds:
# compound, label_class
rows = [
    ("CCN1CCN(C(=O)c2ccc3nc(-c4ccccc4)c(-c4ccccc4)nc3c2)CC1", "F"),
    ("O=C(/C=C/c1ccc(Cl)cc1)NCc1ccncc1", "T"),
    ("COc1ccc(NC(=S)NC(=O)C2CCC2)cc1", "F"),
]

*Q* For this compound, state the assay outcome: O=C(NNC(=O)c1csc(N2CCOCC2)n1)c1ccc(Cl)nc1
*A* F

*Q* For this compound, state the assay outcome: COc1ccc(Nc2cc(NCCCO)c([N+](=O)[O-])c3nonc23)cc1
*A* F

*Q* For this compound, state the assay outcome: c1ccc(-c2csc(NC3CCCCC3)n2)cc1
*A* F

*Q* For this compound, state the assay outcome: O=C(NCC(=O)N(c1ccccc1)C(C(=O)NCC1CCCO1)c1ccccc1)c1cccs1 (configuration not stated)
*A* F

*Q* For this compound, state the assay outcome: Cc1nn(C)cc1S(=O)(=O)Nc1ncccn1
*A* F

*Q* For this compound, state the assay outcome: Nc1nnc(COc2ccc(Br)cc2Br)s1
*A* F

*Q* For this compound, state the assay outcome: Cc1cc(S(=O)(=O)N2CCCC(N3CCOCC3)C2)c(C)cc1Cl (configuration not stated)
*A* F

*Q* For this compound, state the assay outcome: CCc1nnc(NC(=O)CSc2ccc(-c3ccc(-n4cccn4)cc3)nn2)s1
*A* F

*Q* For this compound, state the assay outcome: COCCn1c(N)c(N(Cc2ccccc2)C(=O)CN2C(=O)NC(C)(c3ccccc3)C2=O)c(=O)[nH]c1=O (configuration not stated)
*A* T

*Q* For this compound, state the assay outcome: CCOC(=O)c1sc(NC(=O)CSc2n[nH]c(-c3ccc(Cl)cc3Cl)n2)c(C#N)c1C
*A* F

*Q* For this compound, state the assay outcome: C=CCn1cc(C(C)=O)c(=O)[nH]c1=O
*A* F

*Q* For this compound, state the assay outcome: CCCNC(=O)COC(=O)CCC(=O)c1cccs1
*A* F

*Q* For this compound, state the assay outcome: CC(=O)NC(CC(C)C)C(=O)NC(CO)C(=O)NC(CCC(=O)O)C(=O)NC(C)C(=O)NC(CC(C)C)C(N)=O (configuration not stated) (Ac-LSEAL-NH2; configuration not given here)
*A* F

*Q* For this compound, state the assay outcome: CCOC(=O)N1CCN(S(=O)(=O)c2ccc(Br)s2)CC1
*A* F

*Q* For this compound, state the assay outcome: COc1ccc2c(c1)OC[C@H]1[C@H]2N2C(=O)c3cc(C)ccc3NC(=O)[C@@]2(C)[C@H]1c1ccccc1
*A* F
